Reported IC50 values are given for each entry in this list.
Test system: HT-29
Assay: Cytotoxicity against human HT-29 cells assessed as growth inhibition after 3 days by MTT assay
Assay type: functional, cell-based
Conditions: HT-29, 72 h

smiles_structure: COc1ccccc1/C=C/CCCOc1cc(/C=C\c2cc(OC)c(OC)c(OC)c2)ccc1OC
IC50 / µM: 86

smiles_structure: COc1ccc(/C=C\c2cc(OC)c(OC)c(OC)c2)cc1OCc1ccc(Br)cc1
IC50 / µM: 108

smiles_structure: COc1ccc(/C=C\c2cc(OC)c(OC)c(OC)c2)cc1OCc1ccccc1
IC50 / µM: 39

smiles_structure: COc1ccc(/C=C\c2cc(OC)c(OC)c(OC)c2)cc1O
IC50 / µM: 4.2

smiles_structure: COc1ccc(/C=C\c2cc(OC)c(OC)c(OC)c2)cc1OCCC/C=C/c1ccc(F)cc1
IC50 / µM: 98

smiles_structure: COc1ccc(COc2cc(/C=C\c3cc(OC)c(OC)c(OC)c3)ccc2OC)cc1
IC50 / µM: 47

====

Test: Selectivity ratio of IC50 for HEK293 cells to IC50 for human HT-29 cells
Format: ADME, cell-based
Conditions: HEK293 cells versus HT-29 cells, read-out: Ratio IC50
observed_property: selectivity ratio

smiles_structure: COc1ccc(/C=C\c2cc(OC)c(OC)c(OC)c2)cc1O
observed_property: selectivity ratio
assay_value: 5.9
//
smiles_structure: C=CCOc1cc(/C=C\c2cc(OC)c(OC)c(OC)c2)ccc1OC
observed_property: selectivity ratio
assay_value: 1.5
//
smiles_structure: COc1ccc(/C=C\c2cc(OC)c(OC)c(OC)c2)cc1OCCC/C=C/c1ccc(Cl)cc1
observed_property: selectivity ratio
assay_value: 6.2
//
smiles_structure: COCOc1ccc(/C=C/CCCOc2cc(/C=C\c3cc(OC)c(OC)c(OC)c3)ccc2OC)cc1
observed_property: selectivity ratio
assay_value: 3.6
//
smiles_structure: COc1ccc(/C=C\c2cc(OC)c(OC)c(OC)c2)cc1OCc1ccccc1
observed_property: selectivity ratio
assay_value: 0.4
//
smiles_structure: COc1ccc(COc2cc(/C=C\c3cc(OC)c(OC)c(OC)c3)ccc2OC)cc1
observed_property: selectivity ratio
assay_value: 1.4
//
smiles_structure: COc1ccc(/C=C\c2cc(OC)c(OC)c(OC)c2)cc1OCCC/C=C/c1ccc(F)cc1
observed_property: selectivity ratio
assay_value: 1.2
//
smiles_structure: COCOc1ccccc1/C=C/CCCOc1cc(/C=C\c2cc(OC)c(OC)c(OC)c2)ccc1OC
observed_property: selectivity ratio
assay_value: 11
//
smiles_structure: COc1ccc(/C=C/CCCOc2cc(/C=C\c3cc(OC)c(OC)c(OC)c3)ccc2OC)cc1
observed_property: selectivity ratio
assay_value: 1.9
//
smiles_structure: COc1ccc(/C=C\c2cc(OC)c(OC)c(OC)c2)cc1OCc1ccc(Br)cc1
observed_property: selectivity ratio
assay_value: 0.4
//
smiles_structure: COc1ccc(/C=C\c2cc(OC)c(OC)c(OC)c2)cc1OCCC/C=C/c1ccc(Br)cc1
observed_property: selectivity ratio
assay_value: 5

====

Tested on: HT-29
Assay: Inhibition of c-myc mRNA expression in human HT-29 cells after 48 hrs by RT-PCR analysis relative to control
Assay type: functional
Parameter threshold = 70%. Response is y when inhibition (INH) meets or exceeds it, else n.

smiles_structure: C/C=C/COc1cc(/C=C\c2cc(OC)c(OC)c(OC)c2)ccc1OC
label_class: y

smiles_structure: COc1ccc(/C=C\c2cc(OC)c(OC)c(OC)c2)cc1OCCC/C=C/c1ccc(Br)cc1
label_class: n

smiles_structure: COc1cccc(/C=C/CCCOc2cc(/C=C\c3cc(OC)c(OC)c(OC)c3)ccc2OC)c1
label_class: n

smiles_structure: COCOc1ccccc1/C=C/CCCOc1cc(/C=C\c2cc(OC)c(OC)c(OC)c2)ccc1OC
label_class: y

The reported numbers originate from ChEMBL document CHEMBL3091460.
